value-type: melting point

CC(C)(C)c1ccc(-c2cc(=O)cc(N3CCOCC3)s2)cc1; 172 to 173 °C
O=c1cc(-c2cccc(Br)c2)sc(N2CCOCC2)c1; 181 to 182 °C
O=c1cc(-c2ccc(Br)cc2)sc(N2CCOCC2)c1; 214 to 215 °C

Okay, now this compound:
According to the records, this compound O=c1cc(-c2ccccc2)sc(N2CCOCC2)c1 displays melting point of 160 to 161 °C

* * *

# target-desc: Mammalian DNA-PK, isolated from Hela cell nuclear extract (Homo sapiens, UniProt P78527)
# Construct: Mammalian DNA-PK, isolated from Hela cell nuclear extract; endogenous in cells
# assay-summary: DNA-PK inhibition assay (33P-ATP, phosphocellulose filter, scintillation counting)
# Protocol: In order to assess the inhibitory action of the compounds against DNA-PK in vitro, the following assay was used. The total assay volume per well was 40 μl. […] The plates were transferred to a TopCount NXT (TRADE MARK) (Packard, UK) for scintillation counting. Values recorded are counts per minute (cpm) following a 1 minute counting time for each well. The enzyme activity for each compound is then calculated using the following equation: […]
pIC50: −log10 of the molar value.
value-type: pIC50

Entry O=c1cc(-c2ccc(-c3cccs3)cc2)sc(N2CCOCC2)c1 [Compound 57] — recorded pIC50 = ≥ 5.70

pIC50 for O=c1cc(-c2cccc(-c3cccc(CO)c3)c2)sc(N2CCOCC2)c1 [Compound 40] is ≥ 5.70

// CC(=O)Nc1ccccc1-c1cccc(-c2cc(=O)cc(N3CCOCC3)s2)c1 [Compound 51] : pIC50 value = ≥ 5.70

The measured pIC50 associated with O=c1cc(-c2ccc(-c3cccc(O)c3)cc2)sc(N2CCOCC2)c1 [Compound 14] reads ≥ 5.70

For record CC(=O)c1cccc(-c2cccc(-c3cc(=O)cc(N4CCOCC4)s3)c2)c1 [Compound 33] the listed pIC50 is ≥ 5.70
